Target: Human IL-17AF (Homo sapiens, UniProt Q16552+Q96PD4)
Sequence (Q16552 24-155): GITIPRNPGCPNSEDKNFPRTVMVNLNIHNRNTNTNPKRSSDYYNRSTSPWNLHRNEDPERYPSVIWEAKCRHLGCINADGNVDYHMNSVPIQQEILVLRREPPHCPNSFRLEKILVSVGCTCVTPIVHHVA
Sequence (Q96PD4 31-163): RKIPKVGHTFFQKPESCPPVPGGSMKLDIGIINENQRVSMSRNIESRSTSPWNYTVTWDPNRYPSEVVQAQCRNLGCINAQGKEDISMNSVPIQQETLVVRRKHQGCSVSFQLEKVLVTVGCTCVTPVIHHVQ
Test: IL-17AF ELISA (competitive ELISA, IL-17AF/IL-17Ra receptor-ligand binding)
Conditions: human IL-17AF coated plate, human IL-17Ra, read-out: IC50, inhibitory activity of compounds on human IL-17AF
recorded.metric: IC50

Entry "CCN1Cc2cc(NC(=O)[C@@H](NC(=O)c3ccnn3C(C)C)C(C3CC3)C3CC3)c(F)cc2-c2c(n[nH]c2C)CC1=O" — recorded IC50 = ≤ 100 nM

Memo: "Cc1[nH]nc2c1-c1cc(F)c(NC(=O)[C@@H](NC(=O)c3ccnn3C(C)C)C(C3CC3)C3CC3)cc1COCC2" , reported IC50: ≤ 100 nM

Proceed to the following item.
# IC50 (compound: "[2H]C([2H])([2H])n1nccc1C(=O)N[C@H](C(=O)Nc1ccc2c(c1)COCCc1n[nH]c(C)c1-2)C(C1CC1)C1CC1" ) is 100 to 500 nM

====

molecular target: Human IL-17A (Homo sapiens); test: IL-17A enzyme-linked immunosorbent assay (competitive ELISA, IL-17A/IL-17Ra receptor-ligand binding); set-up: purchased Sino Biological Inc. 12047-H07B; settings: human IL-17A coated plate, human IL-17Ra, read-out: IC50, inhibitory activity of compounds on human IL-17A
recorded.metric: IC50

"Cc1[nH]nc2c1-c1cc(F)c(NC(=O)[C@@H](NC(=O)c3ccnn3CCOC3CC3)C(C3CC3)C3CC3)cc1COCC2" has a reported IC50 of ≤ 50 nM

Now for a further compound.
Just so you know, measured IC50 for "Cc1[nH]nc2c1-c1cc(F)c(NC(=O)[C@@H](NC(=O)c3ccnn3C(C)C)C(C3CC3)C3CC3)cc1CN(C1CCOCC1)CC2" came out at ≤ 50 nM

====

target: Human IL-17A (Homo sapiens, UniProt Q16552); test: IL-17A enzyme-linked immunosorbent assay (competitive ELISA, IL-17A/IL-17Ra receptor-ligand binding); parameters: purchased Sino Biological Inc. 12047-H07B; details: human IL-17A coated plate, human IL-17Ra, read-out: IC50, inhibitory activity of compounds on human IL-17A
pIC50: −log10 of the molar value.
recorded.metric: pIC50

Reading of pIC50 for C=C(F)C(=O)N[C@H](C(=O)Nc1cc2c(cn1)-c1c(n[nH]c1C)CC(=O)N(C(C)C(F)(F)F)C2)C(C1CC1)C1CC1 (mixture of isomers) with Human IL-17A (Homo sapiens, UniProt Q16552): ≥ 7.30

Others:
The observed pIC50 for "Cc1[nH]nc2c1-c1cc(F)c(NC(=O)[C@@H](NC(=O)c3ccnn3CCCN(C)C)C(C3CC3)C3CC3)cc1COCC2" when tested with Human IL-17A (Homo sapiens, UniProt Q16552) stands at 6.82 to 7.30

Value (pIC50, Human IL-17A (Homo sapiens, UniProt Q16552)) for record "Cc1[nH]nc2c1-c1cnc(NC(=O)[C@@H](NC(=O)/C(F)=C\C(C)C)C(C3CC3)C3CC3)cc1CN(C1CC1)CC2" = ≥ 7.30

# pIC50 measured on Human IL-17A (Homo sapiens, UniProt Q16552) for item "Cc1[nH]nc2c1-c1cc(F)c(NC(=O)[C@@H](NC(=O)c3ccnn3CCOC(F)F)C(C3CC3)C3CC3)cc1COCC2" = ≥ 7.30

Item Cc1[nH]nc2c1-c1cc(F)c(NC(=O)[C@@H](NC(=O)c3ccnn3C(C)C)C(C3CC3)C3CC3)cc1CN(C(C)C(F)(F)F)C(=O)C2 (single isomer, unassigned) [compound 186a] was tested on Human IL-17A (Homo sapiens, UniProt Q16552); the reported pIC50 is ≥ 7.30

Form: item "CCCn1nccc1C(=O)N[C@H](C(=O)Nc1cc2c(cc1F)-c1c(n[nH]c1C)CCOC2)C(C1CC1)C1CC1" ; test system Human IL-17A (Homo sapiens, UniProt Q16552); pIC50: ≥ 7.30

====

molecular target: UniProt Q16552; experiment: Inhibition of human IL-17A protein-induced GROα/CXCL1 production in HT-29 cells; format: cell-based; design: purchased R&D 317-ILB; host or cells: added exogenously to HT-29 cells; conditions: 30 ng/mL human IL-17A protein, 48 h, GROα in supernatant by ELISA kit, read-out: Inhibitory IC50 of compounds on HT-29 cell GROα/CXCL1
Measured IC50 by item

compound COCCN1Cc2cc(NC(=O)[C@@H](NC(=O)c3ccnn3C(C)C)C(C3CC3)C3CC3)c(F)cc2-c2c(n[nH]c2C)CC1=O [compound 137] , IC50 observed: 100 to 500 nM

====

molecular target: Human IL-17A (Homo sapiens); test: Inhibition of human IL-17A protein-induced GROα/CXCL1 production in HT-29 cells; type: cell-based; design: purchased R&D 317-ILB; host or cells: added exogenously to HT-29 cells; conditions: 30 ng/mL human IL-17A protein, 48 h, GROα in supernatant by ELISA kit, read-out: Inhibitory IC50 of compounds on HT-29 cell GROα/CXCL1
recorded.metric: IC50

Completed entries (count: 2):
Sure, the documented IC50 for "Cc1[nH]nc2c1-c1cc(F)c(NC(=O)[C@@H](NC(=O)c3ccnn3C(C)C)C(C3CC3)C3CC3)cc1CN(C1CC1)CC2" is ≤ 100 nM

The compound listed as "Cc1[nH]nc2c1-c1cc(F)c(NC(=O)[C@@H](NC(=O)c3ccnn3CCCC(F)(F)F)C(C3CC3)C3CC3)cc1COCC2" has a reported IC50 of ≤ 100 nM

Continue with the next compound.
Reported IC50 ( Cc1[nH]nc2c1-c1cc(F)c(NC(=O)[C@@H](NC(=O)c3ccnn3C(C)C3CC3)C(C3CC3)C3CC3)cc1COCC2 (single isomer, unassigned) [compound 41a] ) = ≤ 100 nM

====

target: Human IL-17A (Homo sapiens, UniProt Q16552); test: IL-17A enzyme-linked immunosorbent assay (competitive ELISA, IL-17A/IL-17Ra receptor-ligand binding); parameters: purchased Sino Biological Inc. 12047-H07B; details: human IL-17A coated plate, human IL-17Ra, read-out: IC50, inhibitory activity of compounds on human IL-17A
// values below are reported IC50

The compound listed as [2H]C([2H])([2H])C([2H])(n1nccc1C(=O)N[C@H](C(=O)Nc1cc2c(cc1F)-c1c(n[nH]c1C)CCOC2)C(C1CC1)C1CC1)C([2H])([2H])[2H] [compound 89] has a reported IC50 of ≤ 50 nM

Entry CCn1nccc1C(=O)N[C@H](C(=O)Nc1cc2c(cc1F)-c1c(n[nH]c1C)CCN(C)C2)C(C1CC1)C1CC1 [compound 155] , IC50 reported as 50 to 150 nM

// Cc1[nH]nc2c1-c1cc(F)c(NC(=O)[C@@H](NC(=O)c3ccnn3C(C)C)C(C3CC3)C3CC3)cc1CN(C1CC1)C(=O)C2 [compound 136] : IC50 value = ≤ 50 nM

Value of IC50 reported for the compound CCc1nocc1C(=O)N[C@H](C(=O)Nc1cc2c(cn1)-c1c(n[nH]c1C)CCN(C1CC1)C2)C(C1CC1)C1CC1 [compound 216] is ≤ 50 nM

More entries:
What the record says about Cc1[nH]nc2c1-c1cc(F)c(NC(=O)[C@@H](NC(=O)c3ccnn3[C@@H](C)CO)C(C3CC3)C3CC3)cc1COCC2 [compound 55] : IC50 is ≤ 50 nM

GET /value?item= CCn1nccc1C(=O)N[C@H](C(=O)Nc1cc2c(cc1F)-c1c(n[nH]c1C)CC(=O)N(CC(F)F)C2)C(C1CC1)C1CC1 [compound 145] &field=IC50 returns ≤ 50 nM

====

biological target: UniProt Q16552; assay: IL-17A enzyme-linked immunosorbent assay (competitive ELISA, IL-17A/IL-17Ra receptor-ligand binding); set-up: purchased Sino Biological Inc. 12047-H07B; conditions: human IL-17A coated plate, human IL-17Ra, read-out: IC50, inhibitory activity of compounds on human IL-17A
recorded.metric: IC50

Measured IC50 of Cc1[nH]nc2c1-c1cc(F)c(NC(=O)[C@@H](NC(=O)/C(F)=C\C3CC3)C(C3CC3)C3CC3)cc1CN(C(C)C(F)(F)F)C(=O)C2 (mixture of isomers) : ≤ 50 nM

Others:
IC50 reported for this compound "Cc1nonc1C(=O)N[C@H](C(=O)Nc1ccc2c(c1)COCCc1n[nH]c(C)c1-2)C(C1CC1)C1CC1" : ≤ 50 nM

Input "Cc1[nH]nc2c1-c1cc(F)c(NC(=O)[C@@H](NC(=O)c3ccnn3CCOC(C)(C)C)C(C3CC3)C3CC3)cc1COCC2" . Output IC50: ≤ 50 nM

Input "Cc1[nH]nc2c1-c1cc(F)c(NC(=O)[C@@H](NC(=O)c3ccnn3C(C)C)C(C3CC3)C3CC3)cc1CN(C(C)(C)C(F)(F)F)CC2" . Output IC50: ≤ 50 nM

// recorded IC50 for "CCn1nccc1C(=O)N[C@H](C(=O)Nc1cc2c(cc1F)-c1c(n[nH]c1C)CC(C)(C)OC2)C(C1CC1)C1CC1" : ≤ 50 nM

So, "COCC(COC)n1nccc1C(=O)N[C@H](C(=O)Nc1cc2c(cc1F)-c1c(n[nH]c1C)CCOC2)C(C1CC1)C1CC1" ? Its IC50 was 50 to 150 nM

The reported IC50 of the compound "Cc1[nH]nc2c1-c1cc(F)c(NC(=O)[C@@H](NC(=O)c3ccnn3[C@@H](C)CO)C3CCCCC3)cc1COCC2" was 50 to 150 nM

Input Cc1[nH]nc2c1-c1cc(F)c(NC(=O)[C@@H](NC(=O)c3ccnn3C(C)C[S+](C)[O-])C(C3CC3)C3CC3)cc1COCC2 (single isomer, unassigned) [compound 43a] . Output IC50: 50 to 150 nM

Sure, the documented IC50 for "Cc1[nH]nc2c1-c1cc(F)c(NC(=O)[C@@H](NC(=O)c3ccnn3C(C)C)[C@H]3CC[C@H](C)CC3)cc1COCC2" is ≤ 50 nM

The compound listed as "Cc1[nH]nc2c1-c1cnc(NC(=O)[C@@H](NC(=O)c3ccnn3C(C)C)C(C3CC3)C3CC3)cc1CN(C1CCC1)C(=O)C2" has a reported IC50 of ≤ 50 nM
